Values from paper PMC9942873

# experimental-target: Pfs48/45 D2-3 (Plasmodium falciparum 3D7, UniProt Q8I6T1)
# Sequence (Q8I6T1 184-428): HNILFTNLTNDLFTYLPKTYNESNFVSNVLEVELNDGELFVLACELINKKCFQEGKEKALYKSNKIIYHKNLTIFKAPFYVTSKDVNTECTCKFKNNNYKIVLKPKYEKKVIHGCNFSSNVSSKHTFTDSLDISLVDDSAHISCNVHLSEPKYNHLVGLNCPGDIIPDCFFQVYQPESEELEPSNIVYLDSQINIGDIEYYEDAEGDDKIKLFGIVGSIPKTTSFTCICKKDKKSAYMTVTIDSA
# measurement-protocol: ELISA
# condition-info: both partners purified
attribute-measured: binding result

INSERT INTO results (binder, meas_value) VALUES
  ('RUPA-29 (antibody, V domains shown, human IgG1; source: recombinant human IgG1, 293T (Protein A purified) or GenScript) VH: QVHLVESGGGVVQPGRSLRLSCAASGFTFRSYGMHWVRLAPGKGLEWVTAIWYDGSKKHFADSVKGRFTISRDNSKNTLYLQMSSLRVEDTAVYYCARDFAHGAFYPVDWGRGTLVTVSS VL: SYELTQPPSVSVSPGQTARITCSGDALPKKHAYWYQQKSGQAPVLVIYDDSKRPSGIPERFSGSSSGTMATLSISGAQVEDEAAYYCYSSDTSANYWVFGGGTKLTVL', 'binds'),
  ('RUPA-70 (antibody, V domains shown, human IgG1; source: recombinant human IgG1, 293T (Protein A purified) or GenScript) VH: QVQLQESGPGLVKPSQTLSLTCTVSGGSISIGGYYWSWIRQHPGKGLEWIGYIYYSGTTYYNPSLKSRVIISIDTSKNQFSLRLKSVTAADTAVYYCARTGLVAAIRGSRRGQQGDYFDYWGQGTLVPVSS VL: SYELTQPPSVSVSPGQTASLTCSGDKLGDKYASWYQQKPGQSPVLVIHQDKKRPSGIPERFSGSNSGNTATLTISGTQAMDEADYYCQAWDSNTGVFGGGTKLTVL', 'binds'),
  ('RUPA-81 (antibody, V domains shown, human IgG1; source: recombinant human IgG1, 293T (Protein A purified) or GenScript) VH: EVQLVATGGGLIQPGGSLRLSCTASGFNVSRMYMSWVRQAPGKGLEWVSVIYSDSSGGSTYYTDSLKGRFIISRDNSQNTLYLQMNSLRVDDTAIYYCARDVRGWGYLDFWGQGTLVTVSS VL: EIVLTQSPGTLSLSPGERAALSCRASQGVSSSFFAWYQQKPGQAPRLLIYGASSRATGIPDRFSGSGSGTDFTLTISRLEPEDFATYYCQQYGYSPWTFGQGTKVEIK', 'binds');
